# System: Jurkat
# measurement_description: Inhibitory concentration against Human Jurkat T cells
# Format: functional, cell-based
Starred links: 1 amine or outer side, 2 acyl side, 3 side chain; linkers in the order of their positions; H or OH if unused. Positions of bridges follow the written chain, without caps; N, C: chain ends. Non-standard residues stand in square brackets, D forms with d. Residues, ends and D or L forms follow the SMILES beside them. Chains are numbered I, II in the order given. Actinocin(1to9) = Cc1c2oc3c(C)ccc(C(=O)[*:2])c3nc-2c(C(=O)[*:1])c(N)c1=O; NMeV = CN[C@H](C(=O)O)C(C)C; Sar = CNCC(=O)O
experimental_readout: IC50 (nM)
I only need the number, in nM, no unit after it.

// below: answered molecules
{"molecule": "N[C@@H](Cc1ccc(N(CCCl)CCCl)cc1)C(=O)O", "unit_abbrev": "nM", "IC50": 2200}
{"molecule": "Cc1ccc(/C=C2\\CCCc3ccccc3C2=O)cc1", "unit_abbrev": "nM", "IC50": 14600}
{"molecule": "C[C@@H]1C[C@@H]([C@H](O)CC2CC(=O)NC(=O)C2)C(=O)[C@@H](C)C1 [CYCLOHEXIMIDE]", "unit_abbrev": "nM", "IC50": 930}

For the next question, use this molecule.
Query string: So what does the record say about IC50 for Cc1c2oc3c(C)ccc(C(=O)N[C@@H]4C(=O)N[C@H](C(C)C)C(=O)N5CCC[C@H]5C(=O)N(C)CC(=O)N(C)[C@@H](C(C)C)C(=O)O[C@@H]4C)c3nc-2c(C(=O)N[C@@H]2C(=O)N[C@H](C(C)C)C(=O)N3CCC[C@H]3C(=O)N(C)CC(=O)N(C)[C@@H](C(C)C)C(=O)O[C@@H]2C)c(N)c1=O [DACTINOMYCIN] (I: T[dV]P[Sar][NMeV] / II: T[dV]P[Sar][NMeV]; ester I:1-I:C, II:1-II:C; linker I:N-II:N via Actinocin(1to9)) ?
Result string: 4.5
